assay: logD(7.4) determination by partition between 1-octanol and phosphate buffer pH 7.4; assay type: physicochemical
readout: logD
One number for each entry.

Inquiry: Report logD, nothing else, for this molecule: CC(C)C[C@H](NC(=O)CCOCCOCCOCCOCCOCCOCCNC(=O)CC[C@H](C(=O)O)N1CCN(CC(=O)O)CCN(CC(=O)O)CC1)C(=O)N[C@@H](C)C(=O)N[C@@H](CCCNC(=N)N)C(=O)N[C@@H](CC(C)C)C(=O)N[C@@H](CC(C)C)C(=O)N[C@H](C(=O)O)[C@@H](C)O [[^68Ga]Ga-2, metal not drawn]
Reply text: -3.51

* * *

experiment: stability towards degradation by human serum peptidases; format: in vitro ADME; details: pooled human serum, 37 °C, incubation up to 90 min, intact tracer by radio-HPLC; read-out: Calculated Half-Life in Human Serum
Where a SMILES comes first, the peptide text is derived from it. Bridges are numbered along the chain shown (N, C = ends). [ ]: non-standard residue; d: D form. The star is where a group is joined. X1 = O=C(O)CN1CCN(CC(=O)O)CCN([C@H](CCC(=O)*)C(=O)O)CC1; PEG6 = NCCOCCOCCOCCOCCOCCOCCC(=O)O
What half-life was measured for each of the following?
Answers are plain numbers, in min.

A selection of reference data follows.
CC[C@H](C)[C@H](NC(=O)[C@@H](NC(=O)[C@H](CC(N)=O)NC(=O)[C@H](CCC(N)=O)NC(=O)[C@@H]1CCCN1C(=O)[C@@H](NC(=O)[C@H](Cc1ccc(O)cc1)NC(=O)CNC(=O)[C@H](Cc1ccc(O)cc1)NC(=O)[C@H](Cc1c[nH]c2ccccc12)NC(=O)[C@H](Cc1c[nH]cn1)NC(=O)[C@H](Cc1ccc(O)cc1)NC(=O)CCOCCOCCOCCOCCOCCOCCNC(=O)CC[C@H](C(=O)O)N1CCN(CC(=O)O)CCN(CC(=O)O)CC1)[C@@H](C)O)C(C)C)C(=O)O [[^68Ga]Ga-1, metal not drawn]    296
CC[C@H](C)[C@H](NC(=O)[C@@H]1CCCN1C(=O)[C@H](Cc1ccc(O)cc1)NC(=O)[C@H](CO)NC(=O)CCOCCOCCOCCOCCOCCOCCNC(=O)CC[C@H](C(=O)O)N1CCN(CC(=O)O)CCN(CC(=O)O)CC1)C(=O)N1CCC[C@H]1C(=O)N[C@@H](CC(=O)O)C(=O)N[C@H](C(=O)O)[C@@H](C)O [[^68Ga]Ga-3, metal not drawn] ({X1-PEG6}-SYPIPDT-OH; C-terminus assumed)    8080

Okay, now this molecule:
Inquiry: Report half-life, nothing else, for this molecule: CC[C@H](C)[C@@H]1NC(=O)[C@H](Cc2ccc(O)cc2)NC(=O)CNC(=O)[C@H](C(C)C)NC(=O)[C@H](C(C)C)NC(=O)[C@@H](NC(=O)[C@@H](N)CC(N)=O)CSSC[C@@H](C(=O)N[C@@H](CCC(N)=O)C(=O)NCCOCCOCCOCCOCCOCCOCCC(=O)N[C@@H](CCCCNC(=O)CC[C@H](C(=O)O)N2CCN(CC(=O)O)CCN(CC(=O)O)CC2)C(N)=O)NC(=O)[C@H](CCCNC(=N)N)NC(=O)[C@H](CCC(=O)O)NC(=O)CNC1=O [[^68Ga]Ga-10, metal not drawn] (H-NCVVGYIGERCQ[PEG6]K(X1)-NH2; disulfide 2-11)
Reply text: 702

* * *

What logD was measured for each of the following?
test: logD(7.4) determination by partition between 1-octanol and phosphate buffer pH 7.4; assay type: physicochemical; conditions: 1-octanol / phosphate buffer 0.05 M, read-out: logD(7.4)
Where a SMILES comes first, the peptide text is derived from it. Bridges are numbered along the chain shown (N, C = ends). [ ]: non-standard residue; d: D form. The star is where a group is joined. X1 = O=C(O)CN1CCN(CC(=O)O)CCN([C@H](CCC(=O)*)C(=O)O)CC1; PEG6 = NCCOCCOCCOCCOCCOCCOCCC(=O)O
Numbers only.

CC[C@H](C)[C@H](NC(=O)[C@@H](NC(=O)[C@H](CC(N)=O)NC(=O)[C@H](CCC(N)=O)NC(=O)[C@@H]1CCCN1C(=O)[C@@H](NC(=O)[C@H](Cc1ccc(O)cc1)NC(=O)CNC(=O)[C@H](Cc1ccc(O)cc1)NC(=O)[C@H](Cc1c[nH]c2ccccc12)NC(=O)[C@H](Cc1c[nH]cn1)NC(=O)[C@H](Cc1ccc(O)cc1)NC(=O)CCOCCOCCOCCOCCOCCOCCNC(=O)CC[C@H](C(=O)O)N1CCN(CC(=O)O)CCN(CC(=O)O)CC1)[C@@H](C)O)C(C)C)C(=O)O [[^68Ga]Ga-1, metal not drawn]    -3.44
CC[C@H](C)[C@H](NC(=O)[C@@H]1CCCN1C(=O)[C@H](Cc1ccc(O)cc1)NC(=O)[C@H](CO)NC(=O)CCOCCOCCOCCOCCOCCOCCNC(=O)CC[C@H](C(=O)O)N1CCN(CC(=O)O)CCN(CC(=O)O)CC1)C(=O)N1CCC[C@H]1C(=O)N[C@@H](CC(=O)O)C(=O)N[C@H](C(=O)O)[C@@H](C)O [[^68Ga]Ga-3, metal not drawn] ({X1-PEG6}-SYPIPDT-OH; C-terminus assumed)    -3.92
CC[C@H](C)[C@@H]1NC(=O)[C@H](Cc2ccc(O)cc2)NC(=O)CNC(=O)[C@H](C(C)C)NC(=O)[C@H](C(C)C)NC(=O)[C@@H](NC(=O)[C@@H](N)CC(N)=O)CSSC[C@@H](C(=O)N[C@@H](CCC(N)=O)C(=O)NCCOCCOCCOCCOCCOCCOCCC(=O)N[C@@H](CCCCNC(=O)CC[C@H](C(=O)O)N2CCN(CC(=O)O)CCN(CC(=O)O)CC2)C(N)=O)NC(=O)[C@H](CCCNC(=N)N)NC(=O)[C@H](CCC(=O)O)NC(=O)CNC1=O [[^68Ga]Ga-10, metal not drawn] (H-NCVVGYIGERCQ[PEG6]K(X1)-NH2; disulfide 2-11)    -3.92
N=C(N)NCCC[C@H](NC(=O)[C@@H](N)CCC(N)=O)C(=O)N[C@@H](Cc1c[nH]cn1)C(=O)N[C@@H](CCCCN)C(=O)N1CCC[C@H]1C(=O)N[C@@H](CCCNC(=N)N)C(=O)N[C@@H](CCC(=O)O)C(=O)NCCOCCOCCOCCOCCOCCOCCC(=O)N[C@@H](CCCCNC(=O)CC[C@H](C(=O)O)N1CCN(CC(=O)O)CCN(CC(=O)O)CC1)C(N)=O [[^68Ga]Ga-5, metal not drawn] (H-QRHKPRE[PEG6]K(X1)-NH2)    -3.91

Inquiry: Report logD, nothing else, for this compound: C[C@@H](O)[C@H](NC(=O)[C@H](CCC(N)=O)NC(=O)[C@H](CC(=O)O)NC(=O)[C@H](CO)NC(=O)[C@@H](NC(=O)[C@H](Cc1c[nH]cn1)NC(=O)CCOCCOCCOCCOCCOCCOCCNC(=O)CC[C@H](C(=O)O)N1CCN(CC(=O)O)CCN(CC(=O)O)CC1)[C@@H](C)O)C(=O)N[C@@H](CC(N)=O)C(=O)O [[^68Ga]Ga-4, metal not drawn] ({X1-PEG6}-HTSDQTN-OH)
Reply text: -4.01

* * *

assay: stability towards degradation by human serum peptidases; format: in vitro ADME; settings: pooled human serum, 37 °C, incubation up to 90 min, intact tracer by radio-HPLC; read-out: Calculated Half-Life in Human Serum
Where a SMILES comes first, the peptide text is derived from it. The star is where a group is joined. X1 = O=C(O)CN1CCN(CC(=O)O)CCN([C@H](CCC(=O)*)C(=O)O)CC1; PEG6 = NCCOCCOCCOCCOCCOCCOCCC(=O)O
readout: half-life (h)
Numbers only, in h.

Inquiry: Report half-life, nothing else, for this compound: C[C@@H](O)[C@H](NC(=O)[C@H](CCC(N)=O)NC(=O)[C@H](CC(=O)O)NC(=O)[C@H](CO)NC(=O)[C@@H](NC(=O)[C@H](Cc1c[nH]cn1)NC(=O)CCOCCOCCOCCOCCOCCOCCNC(=O)CC[C@H](C(=O)O)N1CCN(CC(=O)O)CCN(CC(=O)O)CC1)[C@@H](C)O)C(=O)N[C@@H](CC(N)=O)C(=O)O [[^68Ga]Ga-4, metal not drawn] ({X1-PEG6}-HTSDQTN-OH)
Reply text: 40.5
